- Tested on: Haemophilus parasuis
- protocol: in vitro susceptibility, MIC by mini broth dilution
- Format: cell-based
quantity name: MIC values, Haemophilus parasuis

* CCCN1C[C@H](C)[C@@H](O)[C@](C)(O)[C@@H](CC)OC(=O)[C@H](C)[C@@H](O[C@H]2C[C@@](C)(OC)[C@](O)(CN(CC)CC)[C@H](C)O2)[C@H](C)[C@@H](O[C@@H]2O[C@H](C)C[C@H](N(C)C)[C@H]2O)[C@](C)(O)C[C@H]1C [syzx-103] | 0.25 ug/mi
* CC[C@H]1OC(=O)[C@H](C)[C@@H](O[C@H]2C[C@@](C)(OC)[C@](O)(CNc3cc(OC)cc(OC)c3)[C@H](C)O2)[C@H](C)[C@@H](O[C@@H]2O[C@H](C)C[C@H](N(C)C)[C@H]2O)[C@](C)(O)C[C@@H](C)NC[C@H](C)[C@@H](O)[C@]1(C)O [syzx-76] | 1 ug/mi
* CCCN1C[C@H](C)[C@@H](O)[C@](C)(O)[C@@H](CC)OC(=O)[C@H](C)[C@@H](O[C@H]2C[C@@](C)(OC)[C@](O)(CNc3ccc([N+](=O)[O-])cc3[N+](=O)[O-])[C@H](C)O2)[C@H](C)[C@@H](O[C@@H]2O[C@H](C)C[C@H](N(C)C)[C@H]2O)[C@](C)(O)C[C@H]1C [syzx-228] | 1 ug/mi
* CCCN1C[C@H](C)[C@@H](O)[C@](C)(O)[C@@H](CC)OC(=O)[C@H](C)[C@@H](O[C@H]2C[C@@](C)(OC)[C@](O)(CNCCCOCC)[C@H](C)O2)[C@H](C)[C@@H](O[C@@H]2O[C@H](C)C[C@H](N(C)C)[C@H]2O)[C@](C)(O)C[C@H]1C [syzx-122] | 0.5 ug/mi
* CCCN1C[C@H](C)[C@@H](O)[C@](C)(O)[C@@H](CC)OC(=O)[C@H](C)[C@@H](O[C@H]2C[C@@](C)(OC)[C@](O)(CNC(CC)C(=O)O)[C@H](C)O2)[C@H](C)[C@@H](O[C@@H]2O[C@H](C)C[C@H](N(C)C)[C@H]2O)[C@](C)(O)C[C@H]1C (some centres unmarked) [syzx-141] | 0.25 ug/mi
* CCCN1C[C@H](C)[C@@H](O)[C@](C)(O)[C@@H](CC)OC(=O)[C@H](C)[C@@H](O[C@H]2C[C@@](C)(OC)[C@](O)(CNCCCCl)[C@H](C)O2)[C@H](C)[C@@H](O[C@@H]2O[C@H](C)C[C@H](N(C)C)[C@H]2O)[C@](C)(O)C[C@H]1C [syzx-175] | 0.25 ug/mi
* CCCN1C[C@H](C)[C@@H](O)[C@](C)(O)[C@@H](CC)OC(=O)[C@H](C)[C@@H](O[C@H]2C[C@@](C)(OC)[C@](O)(CNCCc3ccncc3)[C@H](C)O2)[C@H](C)[C@@H](O[C@@H]2O[C@H](C)C[C@H](N(C)C)[C@H]2O)[C@](C)(O)C[C@H]1C [syzx-191] | 0.5 ug/mi
